target or system: melanocortin-4 receptor (MC4R) (Homo sapiens, UniProt P32245)
Construct: expressed in transfected cells
Sequence (P32245 whole entry): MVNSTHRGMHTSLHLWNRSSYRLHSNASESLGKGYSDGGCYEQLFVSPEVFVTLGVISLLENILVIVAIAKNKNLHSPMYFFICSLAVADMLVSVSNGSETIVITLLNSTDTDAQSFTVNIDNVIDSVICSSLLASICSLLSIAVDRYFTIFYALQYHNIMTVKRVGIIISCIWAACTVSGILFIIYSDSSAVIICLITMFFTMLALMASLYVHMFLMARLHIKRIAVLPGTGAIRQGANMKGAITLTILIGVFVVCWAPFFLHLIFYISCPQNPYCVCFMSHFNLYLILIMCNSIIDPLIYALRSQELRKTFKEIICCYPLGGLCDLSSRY
protocol notes: Luciferase assay (CRE-LUC), HEK MC4R-Luc cells
Format: cell-based
condition set: HEK MC4R-Luc cells, luminescence relative to 10 μM NDP-α-MSH
endpoint label: EC50 (nM)

1) CC(C)C(=O)N([C@H]1C[C@@H](C(=O)N2CCOCC2)N(C(=O)[C@@H]2CN(C(C)(C)C)C[C@H]2c2ccc(Cl)cc2)C1)[C@H]1CC[C@@H](C)CC1.Cl [Test Compound, hydrochloride] ... 0.434

====

target or system: MC1R (Homo sapiens, UniProt Q01726)
Sequence (Q01726 whole entry): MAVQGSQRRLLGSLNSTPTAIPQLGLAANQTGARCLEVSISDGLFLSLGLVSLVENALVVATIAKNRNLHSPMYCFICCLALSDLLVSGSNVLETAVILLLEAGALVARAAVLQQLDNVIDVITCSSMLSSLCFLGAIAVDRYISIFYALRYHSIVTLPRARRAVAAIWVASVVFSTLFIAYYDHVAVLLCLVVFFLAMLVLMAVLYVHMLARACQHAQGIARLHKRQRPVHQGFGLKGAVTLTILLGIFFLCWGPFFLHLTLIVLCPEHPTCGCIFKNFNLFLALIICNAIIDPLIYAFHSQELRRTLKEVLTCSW
Sequence (P32121 whole entry partner): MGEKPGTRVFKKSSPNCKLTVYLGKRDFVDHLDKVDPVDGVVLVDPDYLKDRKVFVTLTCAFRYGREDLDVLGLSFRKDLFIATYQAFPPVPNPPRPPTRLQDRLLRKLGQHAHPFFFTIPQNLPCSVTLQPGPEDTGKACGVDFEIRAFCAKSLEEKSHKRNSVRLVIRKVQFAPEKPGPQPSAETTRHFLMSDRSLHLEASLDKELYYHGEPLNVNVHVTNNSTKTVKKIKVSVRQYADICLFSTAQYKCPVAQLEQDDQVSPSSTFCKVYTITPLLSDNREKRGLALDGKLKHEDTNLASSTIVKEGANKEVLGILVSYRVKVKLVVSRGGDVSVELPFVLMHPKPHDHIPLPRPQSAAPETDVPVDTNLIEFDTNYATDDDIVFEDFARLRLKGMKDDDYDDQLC
protocol notes: Pathhunter eXpress β-arrestin assay (U2OS cell line), MC1R
Assay type: cell-based
Design: expressed in transfected cells; host or cells: U2OS (Pathhunter eXpress β-arrestin cell line)
condition set: 90 minutes at 37° C.
endpoint label: EC50

1. CC(C)C(=O)N([C@H]1C[C@@H](C(=O)N2CCOCC2)N(C(=O)[C@@H]2CN(C(C)(C)C)C[C@H]2c2ccc(Cl)cc2)C1)[C@H]1CC[C@@H](C)CC1.Cl [Test Compound, hydrochloride] ... 195 nM

====

target or system: MC4R (Homo sapiens, UniProt P32245)
Sequence (P32245 whole entry): as the sequence (P32245 whole entry) above
protocol notes: cAMP Hunter Gs-coupled cAMP assay (CHO-K1 cell line), MC4R
Type: cell-based
Set-up: expressed in transfected cells; host or cells: CHO-K1 (cAMP Hunter Gs-coupled cell line)
condition set: CHO-K1 cell line, 30 minutes at 37° C.
endpoint label: EC50 (nM)

1. CC(C)C(=O)N([C@H]1C[C@@H](C(=O)N2CCOCC2)N(C(=O)[C@@H]2CN(C(C)(C)C)C[C@H]2c2ccc(Cl)cc2)C1)[C@H]1CC[C@@H](C)CC1.Cl [Test Compound, hydrochloride] ... 16.3

Hey, just so you know, these numbers are from patent US20240091235A1.
